Experiment: Study B: single-dose pharmacokinetics of 25-hydroxyvitamin D3 in healthy subjects
Type: in vivo
Conditions: human, serum, iv, 448 ug, single i.v. dose 448 μg in ethanol solution
Measured Property: Cmax (ng/mL)
API: value field is a number in ng/mL; no unit string.

stdin: Recorded Cmax for C=C1CC[C@H](O)C/C1=C/C=C1\CCC[C@]2(C)[C@@H]([C@H](C)CCCC(C)(C)O)CC[C@@H]12 [25-hydroxyvitamin D3] , please?
stdout: 153

###

Assay: Study A: single-dose pharmacokinetics of serum 25-hydroxyvitamin D3 in subjects with stage 3 or 4 CKD
Format: in vivo, human
Settings: human, serum, iv, 448 ug, baseline-adjusted 25-hydroxyvitamin D3; 448 μg iv single dose; read-out: Cmax mean (SD)
Measured Property: Cmax
Please make sure the unit comes right after the number.

stdin: Which Cmax value is on record for C=C1CC[C@H](O)C/C1=C/C=C1\CCC[C@]2(C)[C@@H]([C@H](C)CCCC(C)(C)O)CC[C@@H]12 [25-hydroxyvitamin D3] ?
stdout: 110 ng/mL

Reference source for all entries: patent US10350224B2
